B1: ALDH8A1 (parent)
chain: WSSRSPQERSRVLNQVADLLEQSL

Variants of: B1
Experiment: protein stability index of a GFP-peptide fusion (GPS, HEK-293T) (PSI 1-6); higher = more stable;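 also: lentivirally expressed fusions sorted by FACS into six bins by GFP to DsRed ratio, PSI derived from sequencing read proportions per bin multiplied by bin number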
Conditions: c terminus: a fixed tail appended
Each item that follows carries a reported protein stability index.
Give your answer as a number; write no unit.

WSSRSPQERSFVLNQVADLLEQSL [R11F]    2.43
WSSRSPQERSRVLDQVADLLEQSL [N14D]    2.28
WSSRSPQERSRPLNQVADLLEQSL [V12P]    4.23
WSSRSPQERSPVLNQVADLLEQSL [R11P]    2.58

Prompt line: Complete the entry with protein stability index for WSSRSPQERSRVLNQVADLLEQSE [L24E]
Response line: 3.59

Prompt line: Complete the entry with protein stability index for WSSYSPQERSRVLNQVADLLEQSL [R4Y]
Response line: 2.09

Prompt line: Complete the entry with protein stability index for WSSRSPQERSRVLNQVADLLEQSC [L24C]
Response line: 2.9

Prompt line: Complete the entry with protein stability index for WSSRSHQERSRVLNQVADLLEQSL [P6H]
Response line: 2.73

Prompt line: Complete the entry with protein stability index for WSSRSPQERSRHLNQVADLLEQSL [V12H]
Response line: 3.05

Prompt line: Complete the entry with protein stability index for WSSRSPQERSRVLNQVADVLEQSL [L19V]
Response line: 3.07

Prompt line: Complete the entry with protein stability index for WSSRSDQERSRVLNQVADLLEQSL [P6D]
Response line: 3.19

Prompt line: Complete the entry with protein stability index for WSSRSPQLRSRVLNQVADLLEQSL [E8L]
Response line: 2.1

Prompt line: Complete the entry with protein stability index for WSSRSPQENSRVLNQVADLLEQSL [R9N]
Response line: 2.86

Prompt line: Complete the entry with protein stability index for WSSRSPQERSRVLNQEADLLEQSL [V16E]
Response line: 4.6

Prompt line: Complete the entry with protein stability index for WSSRSPQERSRVMNQVADLLEQSL [L13M]
Response line: 2.63
